tested on: ATP; experiment: switch fluorescence ratio, 500 uM ATP over buffer (Cy3 cluster intensity, sum of 5 cycles each) (fold (ratio)); higher = stronger signal-on switching upon ATP binding; sequences stand for … in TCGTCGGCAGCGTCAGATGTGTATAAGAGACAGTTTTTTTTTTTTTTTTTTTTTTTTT…TC; details: aptamer strand: ATP DNA aptamer (quencher-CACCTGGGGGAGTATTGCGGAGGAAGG + anchor), 100 nM annealed; ATP concentration: 500 uM;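 note: ATP exposure 15 min at 22 °C before imaging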
Measured attribute: switch fluorescence ratio
Write the number on its own, no unit after it.

AAATGAGTAG | 1.02

input: Query (sequence): `CAAGTATGAG` ; field requested: switch fluorescence ratio
output: 0.983

input: Query (sequence): `ATGCCCGTG` ; field requested: switch fluorescence ratio
output: 0.985

input: Query (sequence): `TTTTACTT` ; field requested: switch fluorescence ratio
output: 0.998

input: Query (sequence): `AATCGGGGTC` ; field requested: switch fluorescence ratio
output: 1.01

input: Query (sequence): `TTAAAGGGCT` ; field requested: switch fluorescence ratio
output: 0.982

input: Query (sequence): `TCGATCTGTG` ; field requested: switch fluorescence ratio
output: 0.997

====

tested on: ATP; assay: switch fluorescence ratio, 500 uM ATP over buffer (Cy3 cluster intensity, sum of 5 cycles each) (fold (ratio)); higher = stronger signal-on switching upon ATP binding; sequences stand for … in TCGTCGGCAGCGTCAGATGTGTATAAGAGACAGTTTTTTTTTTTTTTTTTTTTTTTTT…TC; details: aptamer strand: ATP DNA aptamer (quencher-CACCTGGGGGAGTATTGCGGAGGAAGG + anchor), 100 nM annealed; ATP concentration: 500 uM;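 note: ATP exposure 15 min at 22 °C before imaging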
The following sequences are listed with their measured switch fluorescence ratio values.
Write the number on its own, no unit after it.

Here's what some known entries look like.
TAAACGGGAC | 1.11
TTTTTTCGGG | 0.993
CGTTGTTATG | 0.985
CGGGTTTAAG | 0.993
AGTTCTACAT | 1.01

input: Query (sequence): `AAATGGTACT` ; field requested: switch fluorescence ratio
output: 1.01

input: Query (sequence): `CCGTGGGGTA` ; field requested: switch fluorescence ratio
output: 0.974

input: Query (sequence): `ACGGTGAACC` ; field requested: switch fluorescence ratio
output: 0.989

input: Query (sequence): `ATGGAAGTTT` ; field requested: switch fluorescence ratio
output: 1.01

input: Query (sequence): `AATCATGGGG` ; field requested: switch fluorescence ratio
output: 0.993

input: Query (sequence): `GTTGGGGAGG` ; field requested: switch fluorescence ratio
output: 1.01

====

tested on: ATP; assay: switch fluorescence ratio, 500 uM ATP over buffer (Cy3 cluster intensity, sum of 5 cycles each) (fold (ratio)); higher = stronger signal-on switching upon ATP binding; sequences stand for … in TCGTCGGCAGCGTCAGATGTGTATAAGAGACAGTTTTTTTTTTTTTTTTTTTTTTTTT…TC; conditions: aptamer strand: ATP DNA aptamer (quencher-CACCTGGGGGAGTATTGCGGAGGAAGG + anchor), 100 nM annealed; ATP concentration: 500 uM;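 note: ATP exposure 15 min at 22 °C before imaging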
Measured attribute: switch fluorescence ratio

TCATTCGTCG | 0.971
TGCGGTGTAG | 1.01
TTCGGGCATT | 0.989
CAAGTTTGGG | 0.982
GATTGGGTCA | 1

input: Query (sequence): `TTCGCCGGTT` ; field requested: switch fluorescence ratio
output: 1.02

input: Query (sequence): `AGTCATGTGG` ; field requested: switch fluorescence ratio
output: 1.01

input: Query (sequence): `TTGGCCGCGA` ; field requested: switch fluorescence ratio
output: 2.1

input: Query (sequence): `ATCGAGTGCT` ; field requested: switch fluorescence ratio
output: 0.952

input: Query (sequence): `TGGGTGCCGG` ; field requested: switch fluorescence ratio
output: 0.929

input: Query (sequence): `TTTTCGAGAG` ; field requested: switch fluorescence ratio
output: 1

input: Query (sequence): `AGGTGGTTG` ; field requested: switch fluorescence ratio
output: 0.998

input: Query (sequence): `TTAAGGGGGC` ; field requested: switch fluorescence ratio
output: 0.969

input: Query (sequence): `TCGCCATGAT` ; field requested: switch fluorescence ratio
output: 0.999

input: Query (sequence): `CACGGAGAGT` ; field requested: switch fluorescence ratio
output: 1.14

input: Query (sequence): `AAGGCAATTT` ; field requested: switch fluorescence ratio
output: 1.02

====

system: ATP; assay: switch fluorescence ratio, 500 uM ATP over buffer (Cy3 cluster intensity, sum of 5 cycles each) (fold (ratio)); higher = stronger signal-on switching upon ATP binding; sequences stand for … in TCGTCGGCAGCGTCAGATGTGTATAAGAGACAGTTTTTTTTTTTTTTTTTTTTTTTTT…TC; conditions: aptamer strand: ATP DNA aptamer (quencher-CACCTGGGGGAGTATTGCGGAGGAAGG + anchor), 100 nM annealed; ATP concentration: 500 uM;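 note: ATP exposure 15 min at 22 °C before imaging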
Measured attribute: switch fluorescence ratio

GGAGTATAAG | 0.957
CTTAGAATTG | 1.02
TTTTAACGTG | 0.979

Okay, now this sequence:
input: Query (sequence): `GGTTAGGAAG` ; field requested: switch fluorescence ratio
output: 1.01

====

tested on: ATP; assay: switch fluorescence ratio, 500 uM ATP over buffer (Cy3 cluster intensity, sum of 5 cycles each) (fold (ratio)); higher = stronger signal-on switching upon ATP binding; sequences stand for … in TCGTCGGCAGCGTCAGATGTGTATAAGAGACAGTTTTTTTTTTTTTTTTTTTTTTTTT…TC; settings: aptamer strand: ATP DNA aptamer (quencher-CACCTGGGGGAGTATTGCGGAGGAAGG + anchor), 100 nM annealed; ATP concentration: 500 uM;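 note: ATP exposure 15 min at 22 °C before imaging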
The following sequences are listed with their measured switch fluorescence ratio values.
Write the number on its own, no unit after it.

Here's what some known entries look like.
TTCTAGGGCA | 1.02
TAATGGGTCC | 0.99
GTTAAAACTT | 1.01

input: Lab note: need switch fluorescence ratio with ATP for entry `GTTCAATTGG` , please look it up.
output: 0.98

input: Lab note: need switch fluorescence ratio with ATP for entry `TGGAGCGAGG` , please look it up.
output: 1.02

input: Lab note: need switch fluorescence ratio with ATP for entry `GGTTTTGTAT` , please look it up.
output: 0.993

input: Lab note: need switch fluorescence ratio with ATP for entry `TCAGTTTTAC` , please look it up.
output: 1.01

====

The following sequences are listed with their measured switch fluorescence ratio values.
test system: ATP; assay: switch fluorescence ratio, 500 uM ATP over buffer (Cy3 cluster intensity, sum of 5 cycles each) (fold (ratio)); higher = stronger signal-on switching upon ATP binding; sequences stand for … in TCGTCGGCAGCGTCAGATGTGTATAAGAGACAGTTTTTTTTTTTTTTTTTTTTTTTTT…TC; conditions: aptamer strand: ATP DNA aptamer (quencher-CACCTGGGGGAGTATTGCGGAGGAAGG + anchor), 100 nM annealed; ATP concentration: 500 uM;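 note: ATP exposure 15 min at 22 °C before imaging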
Write the number on its own, no unit after it.

Here's what some known entries look like.
ATTTTTCCGT | 1.02
AGGTCACGGC | 1

Okay, now this sequence:
input: Query (sequence): `TGTGTAAGGG` ; field requested: switch fluorescence ratio
output: 1.02

====

test system: ATP; test: switch fluorescence ratio, 500 uM ATP over buffer (Cy3 cluster intensity, sum of 5 cycles each) (fold (ratio)); higher = stronger signal-on switching upon ATP binding; sequences stand for … in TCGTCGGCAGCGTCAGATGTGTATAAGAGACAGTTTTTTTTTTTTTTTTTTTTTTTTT…TC; settings: aptamer strand: ATP DNA aptamer (quencher-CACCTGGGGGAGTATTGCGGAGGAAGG + anchor), 100 nM annealed; ATP concentration: 500 uM;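 note: ATP exposure 15 min at 22 °C before imaging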
Measured attribute: switch fluorescence ratio
Write the number on its own, no unit after it.

Here's what some known entries look like.
GGTTTAGGTT | 1.01
AAGGGTAGGA | 1
GGTCGAAAGG | 0.985
GATGGATGGG | 1.02
GGGAAAGGGT | 1
GGATTAATTT | 0.98
AAAATTTGTT | 1
ACATTATTGT | 0.982
AGGTCATCGA | 1
TGGGTTTAGG | 1.02

input: Lab note: need switch fluorescence ratio with ATP for entry `GTGGTCTTGA` , please look it up.
output: 0.981

====

system: ATP; assay: switch fluorescence ratio, 500 uM ATP over buffer (Cy3 cluster intensity, sum of 5 cycles each) (fold (ratio)); higher = stronger signal-on switching upon ATP binding; sequences stand for … in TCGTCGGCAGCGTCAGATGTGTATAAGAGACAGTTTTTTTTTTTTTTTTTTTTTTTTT…TC; conditions: aptamer strand: ATP DNA aptamer (quencher-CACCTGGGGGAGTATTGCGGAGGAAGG + anchor), 100 nM annealed; ATP concentration: 500 uM;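 note: ATP exposure 15 min at 22 °C before imaging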
The following sequences are listed with their measured switch fluorescence ratio values.
Write the number on its own, no unit after it.

GGTATGTAGG | 0.978
ATTGAAAGTG | 0.986
GTTTTGGTAG | 1
GGGCATGTAC | 1.57
CTTATTAACT | 0.995

Okay, now this sequence:
input: Query (sequence): `ATTTGGAAGT` ; field requested: switch fluorescence ratio
output: 1.02
